target system: rat brain N-type calcium channel subunits (α1B+α2δ+β1b) (Rattus norvegicus, UniProt Q02294)
Construct: expressed in transfected cells; host or cells: HEK 293
Sequence (Q02294 whole entry): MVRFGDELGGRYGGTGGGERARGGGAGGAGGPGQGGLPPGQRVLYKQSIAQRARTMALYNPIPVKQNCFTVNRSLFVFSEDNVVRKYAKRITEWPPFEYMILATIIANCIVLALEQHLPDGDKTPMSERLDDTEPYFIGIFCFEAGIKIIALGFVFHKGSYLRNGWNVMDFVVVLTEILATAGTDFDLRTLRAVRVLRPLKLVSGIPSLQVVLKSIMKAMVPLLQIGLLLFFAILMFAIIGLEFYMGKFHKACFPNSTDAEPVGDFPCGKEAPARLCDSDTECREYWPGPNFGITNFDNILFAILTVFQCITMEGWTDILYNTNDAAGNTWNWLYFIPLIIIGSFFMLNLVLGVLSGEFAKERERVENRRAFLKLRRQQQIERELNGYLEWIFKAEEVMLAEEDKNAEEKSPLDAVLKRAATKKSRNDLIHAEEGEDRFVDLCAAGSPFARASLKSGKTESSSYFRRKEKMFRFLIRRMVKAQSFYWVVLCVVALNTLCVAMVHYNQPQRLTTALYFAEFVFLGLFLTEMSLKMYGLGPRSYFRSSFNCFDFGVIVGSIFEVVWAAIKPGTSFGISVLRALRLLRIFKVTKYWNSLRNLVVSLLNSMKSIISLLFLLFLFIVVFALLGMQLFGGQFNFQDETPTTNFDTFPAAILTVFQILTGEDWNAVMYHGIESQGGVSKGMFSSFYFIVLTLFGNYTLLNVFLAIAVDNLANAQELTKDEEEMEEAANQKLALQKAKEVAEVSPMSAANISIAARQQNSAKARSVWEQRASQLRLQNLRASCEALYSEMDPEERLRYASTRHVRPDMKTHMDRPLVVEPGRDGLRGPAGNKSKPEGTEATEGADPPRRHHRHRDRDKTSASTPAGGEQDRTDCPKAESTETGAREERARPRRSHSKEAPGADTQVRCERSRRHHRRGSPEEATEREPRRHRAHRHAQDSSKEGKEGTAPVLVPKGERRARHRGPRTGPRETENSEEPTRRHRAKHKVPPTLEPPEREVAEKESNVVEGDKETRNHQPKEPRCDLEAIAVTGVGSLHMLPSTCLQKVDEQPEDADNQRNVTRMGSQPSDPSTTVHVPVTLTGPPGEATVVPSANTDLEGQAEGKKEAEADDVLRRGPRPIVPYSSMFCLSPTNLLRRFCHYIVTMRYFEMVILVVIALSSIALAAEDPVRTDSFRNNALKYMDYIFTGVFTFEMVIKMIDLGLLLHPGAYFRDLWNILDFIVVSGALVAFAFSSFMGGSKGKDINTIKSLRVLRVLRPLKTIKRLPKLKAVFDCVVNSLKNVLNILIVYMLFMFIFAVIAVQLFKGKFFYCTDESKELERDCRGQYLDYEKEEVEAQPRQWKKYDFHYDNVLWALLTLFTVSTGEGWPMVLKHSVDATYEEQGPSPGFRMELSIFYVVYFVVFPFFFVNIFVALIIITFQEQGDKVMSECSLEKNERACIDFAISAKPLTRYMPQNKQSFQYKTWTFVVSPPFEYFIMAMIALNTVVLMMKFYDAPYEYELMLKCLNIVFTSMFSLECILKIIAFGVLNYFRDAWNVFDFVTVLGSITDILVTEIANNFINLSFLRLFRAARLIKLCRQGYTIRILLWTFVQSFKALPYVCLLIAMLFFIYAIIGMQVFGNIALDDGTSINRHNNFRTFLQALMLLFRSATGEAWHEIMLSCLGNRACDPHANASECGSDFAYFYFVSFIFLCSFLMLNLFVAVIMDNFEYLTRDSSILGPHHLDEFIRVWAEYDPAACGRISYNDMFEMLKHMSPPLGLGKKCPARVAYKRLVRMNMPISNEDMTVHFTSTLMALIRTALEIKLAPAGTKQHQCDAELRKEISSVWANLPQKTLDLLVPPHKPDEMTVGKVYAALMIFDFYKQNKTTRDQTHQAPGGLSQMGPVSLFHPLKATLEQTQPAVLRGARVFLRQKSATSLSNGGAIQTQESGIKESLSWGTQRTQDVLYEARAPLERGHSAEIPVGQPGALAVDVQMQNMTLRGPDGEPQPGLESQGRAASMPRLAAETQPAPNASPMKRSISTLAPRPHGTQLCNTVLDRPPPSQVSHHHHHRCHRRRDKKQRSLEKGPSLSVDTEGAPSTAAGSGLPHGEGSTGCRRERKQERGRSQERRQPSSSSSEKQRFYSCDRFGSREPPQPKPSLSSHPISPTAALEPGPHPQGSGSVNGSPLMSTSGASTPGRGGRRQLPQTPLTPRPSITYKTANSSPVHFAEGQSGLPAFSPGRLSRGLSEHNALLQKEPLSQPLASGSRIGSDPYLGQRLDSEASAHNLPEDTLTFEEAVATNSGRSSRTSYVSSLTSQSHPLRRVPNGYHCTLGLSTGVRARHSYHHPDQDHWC
protocol text: N-type calcium channel block, whole cell patch clamp in HEK 293 cells
Assay type: cell-based
experimental conditions: pulse frequency 0.2 Hz (frequency dependent block), holding −80 mV to +10 mV, 5 mM Ba; read-out: IC50 at 0.2 Hz
measurement kind: IC50 (nM)

Examples from the recorded data:
O=C(NCC1CCN(C(=O)CCCCC(c2ccc(F)cc2)c2ccc(F)cc2)C1)c1cc(C(F)(F)F)cc(C(F)(F)F)c1 (stereo not shown) [Compound P24] ... 210
CC(C)(C)c1cc(C(=O)NCC2CCN(C(=O)CCCCC(c3ccc(F)cc3)c3ccc(F)cc3)C2)cc(C(C)(C)C)c1 (stereo not shown) ... 119
CN(Cc1cc(C(F)(F)F)cc(C(F)(F)F)c1)CC1CCN(C(=O)CCCCC(c2ccc(F)cc2)c2ccc(F)cc2)C1 (stereo not shown) ... 81
CN(CC(=O)N(c1ccccc1)c1ccccc1)CC1CCN(C(c2ccccc2)c2ccccc2)C1 (stereo not shown) ... 241

P: O=C(CC(c1ccccc1)c1ccccc1)NCC1CCN(C(c2ccccc2)c2ccc(C(F)(F)F)cc2)C1 (stereo not shown)
Q: CN(CCC(c1ccccc1)c1ccccc1)CC1CCN(C(c2ccccc2)c2ccccc2)C1 (stereo not shown)
R: Cc1cc(C)cc(NCC(=O)NCC2CCN(C(=O)CCCCC(c3ccc(F)cc3)c3ccc(F)cc3)C2)c1 (stereo not shown)
Could you please sort these 3 entries by IC50 from high to low? List the labels, following the order given in the request.
P, Q, R

---

target system: rat brain N-type calcium channel subunits (α1B+α2δ+β1b) (Rattus norvegicus)
Construct: expressed in transfected cells; host or cells: HEK 293
protocol text: N-type calcium channel block, whole cell patch clamp in HEK 293 cells
Assay type: cell-based
experimental conditions: low frequency stimulation 0.067 Hz (tonic block), holding −80 mV to +10 mV, 5 mM Ba; read-out: IC50 at 0.067 Hz
measurement kind: IC50 (nM)

Example entries begin here.
CC(C)(C)c1cc(C(=O)NCC2CCN(C(=O)CCCCC(c3ccc(F)cc3)c3ccc(F)cc3)C2)cc(C(C)(C)C)c1 (centres unmarked) [Compound P44] ... 265
COc1c(C(C)(C)C)cc(C(=O)N2CCC(CNC(=O)CCCCC(c3ccc(F)cc3)c3ccc(F)cc3)C2)cc1C(C)(C)C (centres unmarked) ... 10

I: c1ccc(C(c2ccccc2)N2CCC(CN(CCN(c3ccccc3)c3ccccc3)CCN(c3ccccc3)c3ccccc3)C2)cc1 (centres unmarked)
II: CC(C)(C)c1cc(C(=O)NCC2CCN(C(=O)CCCCC(c3ccc(F)cc3)c3ccc(F)cc3)C2)cc(C(C)(C)C)c1 (centres unmarked) [Compound P17]
III: O=C(CC(c1ccccc1)c1ccccc1)N1CCC(CNC(c2ccccc2)c2ccccc2)C1 (centres unmarked) [Compound P2]
IV: COc1cc(C(=O)NCC2CCN(CCCCCC(c3ccc(F)cc3)c3ccc(F)cc3)C2)cc(OC)c1OC (centres unmarked)
V: CC(C)(C)c1ccc(C(c2ccccc2)N2CCC(CNC(=O)CC(c3ccc(F)cc3)c3ccc(F)cc3)C2)cc1 (centres unmarked)
Let's sort these by IC50, smallest first. Go ahead? Answer format: list of labels, ordered as asked.
II, V, IV, III, I
(II: 60 nM, V: 135 nM, IV: 450 nM, III: 1070 nM, I: 8000 nM)

I: O=C(NCC1CCN(C(c2ccccc2)c2ccccc2)C1)NC(c1ccccc1)c1ccccc1 (centres unmarked)
II: COc1cc(CN(C)CC2CCN(C(=O)CCCCC(c3ccc(F)cc3)c3ccc(F)cc3)C2)cc(OC)c1OC (centres unmarked)
III: O=C(CN(CC(=O)N(c1ccccc1)c1ccccc1)CC1CCN(C(c2ccccc2)c2ccccc2)C1)N(c1ccccc1)c1ccccc1 (centres unmarked)
Thanks in advance: please rank these 3 entries by IC50, highest to lowest. As an answer, provide the labels arranged in the order called for.
I, II, III
